Data provenance is PubChem BioAssay.

experiment: inhibitors of E-selectin induction by TNFa, primary screen, imaging, HUVEC, immunofluorescence, MLSMR starter and 10KST1 sets (AID 487); conditions: HUVEC TNFalpha-induced E-selectin immunofluorescence imaging, at 2 µM; stronger effect = higher value;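 note: signal is fraction of cell area covered by stained E-selectin grains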
Where a SMILES comes first, the peptide text is derived from it.
So I've got a bunch of molecules here, and I need their inhibition values.
Give bare numbers, in %.

Examples with answers:
> print(dat)
                                molecule  readout.units  recorded.value
1  c1coc(CN(Cc2cccs2)Cc2nnnn2C2CCCCC2)c1              %           -12.8
2  COc1ccc(CCNc2oc(COc3ccccc3)nc2C#N)cc1              %            -411

Look at each molecule and report its inhibition.
1. Cn1c(=O)c2c(nc(NCc3ccco3)n2Cc2ccccc2Cl)n(C)c1=O
2. CC/C(O)=C(/C#N)c1nnc2n1CCCCC2
3. Cc1cc(=O)oc2cc(OCC(=O)NCc3cccnc3)ccc12
4. CC(C)Cn1c(N)c(C(=O)COC(=O)c2ccc3c(c2)OCCO3)c(=O)n(C)c1=O
5. CC(=O)NC(C(=O)NCC(N)=O)C(C)C (stereo not drawn) (HELM PEPTIDE1{[ac].[CC(C)C(N[*:1])C(=O)[*:2]].G.[am]}$$$$V2.0)

1. -15.6
2. 47.8
3. -1.6
4. -5.7
5. 9.9

Look at each molecule and report its inhibition.
1. COC(=O)c1[nH]c(C)c(/C(O)=C2\C(=O)C(=O)N(CCN3CCOCC3)C2c2cccs2)c1C (stereo not drawn)
2. O=C1CC(c2cccs2)CC2=C1C(c1ccccc1)n1ncnc1N2 (stereo not drawn)

-53.2
-72.5

Look at each molecule and report its inhibition.
1. N#C/C(=C\c1c(N2CCC(C(N)=O)CC2)nc2ccccn2c1=O)S(=O)(=O)c1ccccc1
2. C=Cn1nc(C)c2ccccc2c1=O
3. COc1ccccc1C(=O)N1CCN(C(=O)COc2cccc(C)c2)CC1
4. COc1cc(NC(=O)c2cccs2)cc(OC)c1

-112
-27.2
-52.5
-201

---

So I've got a bunch of compounds here, and I need their z-score values.
assay: DUSP6 inhibitors restoring Erk phosphorylation by chemical complementation, primary imaging in DUSP6-transfected HeLa (AID 609); conditions: HeLa MKP-3 transfected, phospho-Erk imaging KS statistic; measured here: nuclear pErk red intensity z-score; at 10 µM; stronger effect = higher value; cells stimulated with TPA for 15 min
Give bare numbers.

Look at each compound and report its z-score.
1. COc1cc(C2C(C(=O)c3sc(C)nc3C)=C(O)C(=O)N2CCN(C)C)cc(OC)c1OC (stereo not drawn)
2. CCc1nc2n[nH]c(N)c2c2c1CCCC2
3. N/C(=N\S(=O)(=O)c1ccc(Cl)s1)c1ccccc1
4. CCN(CC)c1nc(-c2cccc(OC)c2O)nc2ccccc12
5. COc1ccc(/C(O)=C2/C(=O)C(=O)N(CCN3CCOCC3)C2c2cccnc2)cc1OC (stereo not drawn)
6. N#Cc1c2c(c(-c3ccccc3)[nH]c1=O)CCCC2
7. O=c1[nH]c2cnccc2n1-c1ccccc1
8. CC(O)CNc1nc2c(c(=O)n(C)c(=O)n2C)n1Cc1cccc(C(F)(F)F)c1 (stereo not drawn)

1. 0.204
2. -1.94
3. -1.41
4. 0.629
5. -0.594
6. -4.21
7. -1.07
8. -1.36

Look at each compound and report its z-score.
1. O=S(=O)(/C=C/c1ccccc1)Nc1ccc2c(c1)OCO2
2. CCOC(=O)c1[nH]c2cc3c(cc2c1NC(=O)CN1CC(C)CC(C)C1)OCO3 (stereo not drawn)
3. CCOc1ccc(-c2nc(C#N)c(N3CCN(CC)CC3)o2)cc1
4. CCC(=O)Nc1ccc(-c2nnc(SCC(=O)NCC3CCCO3)n2C)cc1 (stereo not drawn)
5. Cn1ccnc1C(O)c1ccc(OCc2ccccc2)cc1 (stereo not drawn)
6. CCCCOC(=O)c1ccc(NC(=O)CSc2nncn2C)cc1
7. C=C(C)CSc1nnc2n(C)c(=O)c3c4c(sc3n12)CCC4
8. Cc1ccc(-n2ncc3c(NCc4cccnc4)ncnc32)c(C)c1

1. 0.714
2. -0.714
3. 0.968
4. 0.412
5. -0.207
6. 0.565
7. -0.897
8. 0.734

Look at each compound and report its z-score.
1. CC1(C)Cc2c(c(N3CCOCC3)nc3sc4c(=O)[nH]cnc4c23)CS1
2. CC(NC(=O)CSc1nc2c(cc1C#N)CN(C)CC2)c1ccccc1 (stereo not drawn)
3. CN(C)C(=O)COn1c(SCC(=O)N(C)C)nc2ccccc2c1=O
4. N#CC1=C(N)OC2=C(C(=O)CCC2)[C@]12C(=O)N(CC(N)=O)c1ccccc12
5. CCC(C(=O)Nc1nccs1)(C(F)(F)F)C(F)(F)F

1.1
-0.682
1.1
-0.43
0.296

Look at each compound and report its z-score.
1. NC(=O)/C(=N\O)c1ccccc1
2. N#Cc1c(N)n(CCOC(=O)c2ccc(Cl)cc2)c2nc3ccccc3nc12

0.104
-0.586

Look at each compound and report its z-score.
1. Cc1ccc(-n2[nH]c(C)c(C=Nc3cc(C)ccn3)c2=O)cc1
2. N#Cc1nc(-c2ccc(F)cc2)oc1N1CCCC1

[0.605, 0.859]

Look at each compound and report its z-score.
1. CCCCSc1nc(O)c(C2OC(=O)c3c2ccc(OC)c3OC)c(=O)n1C (stereo not drawn)
2. Cn1c(=O)[nH]c(=O)c2c1nc(Br)n2CCSc1nnnn1-c1ccccc1
3. CCOC(=O)CSc1nnc2n(Cc3ccccc3)c(=O)c3c4c(sc3n12)CCC4
4. O=c1c(-c2ccc(Cl)cc2)[n+]([O-])c2ccccc2n1O

0.751
1.24
1.89
0.573

Look at each compound and report its z-score.
1. O=C(NCCCN1CCOCC1)C1(c2ccccc2)CCOCC1
2. Cn1c(=O)c2c(nc(Br)n2CCSc2nc3ccccc3o2)n(C)c1=O
3. CCCC1CC(=O)OC1(C)C(=O)CSc1n[nH]c(-c2ccccc2)n1 (stereo not drawn)
4. Cc1nnc(N2CCCCC2)c2ccccc12
5. CC(C)CNC(=O)c1c(N)n(/N=C/c2cccnc2)c2nc3ccccc3nc12

1: -0.449; 2: -1.22; 3: -0.223; 4: 0.176; 5: -0.113

Look at each compound and report its z-score.
1. CN1CCc2c(n(CC(O)CN3C(=O)c4ccccc4S3(=O)=O)c3ccccc23)C1=O (stereo not drawn)
2. Clc1ccccc1CN(Cc1ccccc1)c1ncnc2nc[nH]c12
3. CCSC1=C(C#N)C(c2cccs2)C(C(=O)OC)=C(C)N1 (stereo not drawn)
4. CC(=O)Nc1ccc(NCC(O)COc2ccccc2)cc1 (stereo not drawn)
5. CCc1nc(NCC2CCCO2)c(C#N)c2c1COC(C)(C)C2 (stereo not drawn)
6. CN(C)c1cccc2c(S(=O)(=O)N3CCOCC3)cccc12
7. Cc1ccc(C(=O)C2C(c3cccs3)NC(=O)NC2(O)C(F)(F)F)cc1 (stereo not drawn)

[-1.28, 0.29, -1.35, 0.509, 0.863, -0.367, 0.548]

Look at each compound and report its z-score.
1. Cc1ccc2cc(CNC(C)C)c(=O)[nH]c2c1
2. CN(C)CCOC(=O)Cc1ccc(Cl)cc1

[-1.89, -0.341]
